What inhibition was measured for each of the following?
System: cathepsin L1 (Fasciola hepatica)
Assay: CTSL1 protease inhibition, fluke enzyme – biochemical, QFRET, fluorogenic peptide substrate, counter-screen for PFM18AAP inhibitor project, primary screen (AID 1906);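 note: 0% = plate median of test compound wells and 100% = 1 µM Z-Phe-Ala-diazomethylketone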
Settings: recombinant F. hepatica cathepsin L1, Z-Leu-Arg-MCA fluorescence; at 5.96 µM; stronger effect = higher value
Screen size: about 300,000 compounds; about 1,500 (0.5%) were called active. This excerpt belongs to a sample that is enriched for actives.
# number only, unit % dropped from output

query: Form: Entry = O=C(Nc1ccc(-c2nnc(-c3ccccc3)o2)cc1)C1CCCO1 (stereo unspecified) | System = cathepsin L1 (Fasciola hepatica) | inhibition = ____
result: 0.12

query: Form: Entry = `C/C(CCC(=O)OC[C@H]1O[C@H](C#Cc2ccccc2)C=C[C@@H]1Oc1ccc(C)cc1)=N\OC[C@@H](O)[C@H]1O[C@@H]2OC(C)(C)O[C@@H]2[C@H]1O` | System = cathepsin L1 (Fasciola hepatica) | inhibition = ____
result: -0.48

query: Form: Entry = `CCOc1cc(N2CCOCC2)c(OCC)cc1NC(=O)c1ccc(C)s1` | System = cathepsin L1 (Fasciola hepatica) | inhibition = ____
result: -0.83

query: Form: Entry = O=C(Nc1nnc(CCc2ccccc2)s1)C1CCCO1 (stereo unspecified) | System = cathepsin L1 (Fasciola hepatica) | inhibition = ____
result: 18

query: Form: Entry = `O=C(Nc1cccc2cccnc12)c1cccc(Cl)c1` | System = cathepsin L1 (Fasciola hepatica) | inhibition = ____
result: 5.74

query: Form: Entry = `CC[N+](C)(CC)CCC[n+]1c(-c2ccccc2)c2cc(N)ccc2c2ccc(N)cc21` | System = cathepsin L1 (Fasciola hepatica) | inhibition = ____
result: 108

query: Form: Entry = `CCSc1nsc(NC(=O)Nc2ccccc2OC)n1` | System = cathepsin L1 (Fasciola hepatica) | inhibition = ____
result: -2.36

query: Form: Entry = `CCN(CC)C(=O)CSc1nc2ccccc2o1` | System = cathepsin L1 (Fasciola hepatica) | inhibition = ____
result: -2.89

query: Form: Entry = `Cc1ccc2cc(C)c(N3CCC(C)CC3)nc2c1` | System = cathepsin L1 (Fasciola hepatica) | inhibition = ____
result: -2.83

query: Form: Entry = `CCc1ccccc1NC(=O)CSc1nnc(CCNC(=O)OC(C)(C)C)o1` | System = cathepsin L1 (Fasciola hepatica) | inhibition = ____
result: -11.2

query: Form: Entry = `CCOc1cc(N2CCOCC2)c(OCC)cc1NC(=O)COc1cccc2cccnc12` | System = cathepsin L1 (Fasciola hepatica) | inhibition = ____
result: -0.24

* * *

System: cathepsin L1 (Fasciola hepatica)
Experiment: CTSL1 protease inhibition, fluke enzyme – biochemical, QFRET, fluorogenic peptide substrate, counter-screen for PFM18AAP inhibitor project, primary screen (AID 1906);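 note: 0% = plate median of test compound wells and 100% = 1 µM Z-Phe-Ala-diazomethylketone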
Details: recombinant F. hepatica cathepsin L1, Z-Leu-Arg-MCA fluorescence; at 5.96 µM; stronger effect = higher value
The whole screen tested about 300,000 compounds, of which about 1,500 (0.5%) were called active. What follows is part of a selection rich in actives, with near analogues and random picks from the rest.
What inhibition was measured for each of the following?
# number only, unit % dropped from output

query: So what does the record say about inhibition for Cc1ccc(-c2nnc(C)c(N3CC(C)OC(C)C3)n2)cc1 (stereo not drawn) ?
result: 1.07

query: So what does the record say about inhibition for `COC(=O)Nc1ccc(S(=O)(=O)Nc2cc(OC)nc(OC)n2)cc1` ?
result: 2.38

query: So what does the record say about inhibition for COCCCN(C(=O)Cn1ncc2c(=O)oc3ccc(C)cc3c21)C(C)c1ccncc1 (stereo not drawn) ?
result: 3.63

query: So what does the record say about inhibition for `Cc1cccc(-n2c(SCC(=O)Nc3cccc(S(=O)(=O)NC4=NCCCCC4)c3)nc3ccccc3c2=O)c1C` ?
result: 0.48

query: So what does the record say about inhibition for `C/C(=N\NC(=O)c1cccnc1)c1ccc(-c2ccccc2)cc1` ?
result: 2.6

query: So what does the record say about inhibition for `COC1=C(N2CCOCC2)C(=O)c2ccccc2C1=O` ?
result: 21.1

query: So what does the record say about inhibition for CC(=O)NN1C(=O)c2ccccc2NC1c1ccccc1 (stereo not drawn) ?
result: 0.11

query: So what does the record say about inhibition for `COC(C/C=C/C(=O)[C@@H](C)OCc1ccccc1)OC` ?
result: -1.49

query: So what does the record say about inhibition for `CCCCC(O)(CCCC)C(=O)NN(C(=O)CCl)c1ccccc1` ?
result: 18.1

query: So what does the record say about inhibition for CCSc1nc2c(c(=O)[nH]1)C(c1cccnc1)C(C(=O)OC(C)C)=C(C)N2 (stereo not drawn) ?
result: 4.8

query: So what does the record say about inhibition for `COc1ccc(-n2nc(C(=O)NCC(=O)N3CCN(c4ccccc4OC)CC3)c3ccccc3c2=O)c(OC)c1` ?
result: 0.09

query: So what does the record say about inhibition for `Cc1ccc2oc(=O)c3cnn(CC(=O)N(Cc4ccco4)C4CCCCC4)c3c2c1` ?
result: 42.9

query: So what does the record say about inhibition for `COC(=O)C1=C(NC(=O)C(C)(C)C)CCS1` ?
result: -1.55

query: So what does the record say about inhibition for `C/C(=N\NC(N)=S)c1cccnc1` ?
result: 35.1

query: So what does the record say about inhibition for CCc1noc(C)c1C(=O)N1CCCC(N2CCN(c3ccc(F)cc3)CC2)C1 (stereo not drawn) ?
result: -0.72

query: So what does the record say about inhibition for `CC(=O)N(C1=C(Cl)C(=O)c2ccccc2C1=O)c1ccc(C(=O)O)cc1` ?
result: 41.1

query: So what does the record say about inhibition for `CCOCCCNc1c(CC)c(C)c(C#N)c2nc3ccccc3n12` ?
result: 2.01

query: So what does the record say about inhibition for `Cc1cc(C)cc(NC(=O)COc2coc(CN3CCN(c4ccccc4)CC3)cc2=O)c1` ?
result: -0.61

query: So what does the record say about inhibition for `CCOC(=O)Nc1sc(C(=O)N(C)C)c(C)c1C(=O)OCC` ?
result: 3.33

query: So what does the record say about inhibition for `Cc1cccc2sc(N(CCCN(C)C)C(=O)CCS(=O)(=O)c3ccccc3)nc12` ?
result: 28.5

query: So what does the record say about inhibition for `COc1cc2ccccc2cc1C(=O)N(CCN(C)C)c1nc2c(F)cccc2s1` ?
result: 3.44

query: So what does the record say about inhibition for `COc1cccc2sc(N(CCCN(C)C)C(=O)C(c3ccccc3)c3ccccc3)nc12` ?
result: 1.13

query: So what does the record say about inhibition for `C=CCNC(=O)CSc1nc2scc(-c3ccco3)c2c(=O)n1CC=C` ?
result: 35.5

query: So what does the record say about inhibition for `COC(=O)c1scc(S(=O)(=O)C(C)(C)C)c1-n1cccc1` ?
result: -3.59

query: So what does the record say about inhibition for CCC(C)NC(=O)c1cc(Cl)ccc1OC (stereo not drawn) ?
result: 0.5

query: So what does the record say about inhibition for CN(CC(=O)Nc1cccc(F)c1)C(=O)C1CSC2(C)CCC(=O)N12 (stereo not drawn) ?
result: -4.97

query: So what does the record say about inhibition for `O=C(CN1C(=O)c2ccccc2C1=O)NCc1ccc(C(=O)O)cc1` ?
result: 10.4

query: So what does the record say about inhibition for `CC(=O)c1cc(C#N)c(SCC(=O)C(C)(C)C)nc1C` ?
result: 5.58

query: So what does the record say about inhibition for `COC(=O)[C@H](C)NC(=O)Nc1ccc(OC(F)(F)F)cc1` ?
result: -1.87

query: So what does the record say about inhibition for `COC(=O)N(NC(=O)C(O)(C(C)C)C(C)C)c1ccccc1` ?
result: -0.72

query: So what does the record say about inhibition for `Cc1cc2cc3c(N)[nH]nc3nc2cc1C` ?
result: 0.69

query: So what does the record say about inhibition for `C/C(=N\NC(N)=S)c1ccncc1` ?
result: 3.21

query: So what does the record say about inhibition for `NC(=O)COc1ccccc1C(=O)NC12CC3CC(CC(C3)C1)C2` ?
result: -1.07

query: So what does the record say about inhibition for `Cc1onc(-c2ccccc2)c1C(=O)NNC(=S)NC(=O)c1ccc(F)cc1` ?
result: 6.16

query: So what does the record say about inhibition for `CCc1noc(C)c1C(=O)NNC(=O)c1ccc(F)cc1` ?
result: 18.8

query: So what does the record say about inhibition for `COC(C[C@@H]1O[C@@H]1C(=O)[C@H](C)OCc1ccccc1)OC` ?
result: 28.4

query: So what does the record say about inhibition for `CCOC(=O)Cc1ncccc1C(=O)Nc1ccc(OC(F)(F)F)cc1` ?
result: 2.95

query: So what does the record say about inhibition for `C=CCn1c(SCc2csc(C)n2)nc2scc(-c3ccc(C)o3)c2c1=O` ?
result: 1.45

query: So what does the record say about inhibition for `CCOC(=O)c1c(NC(=O)CCl)sc(C(=O)N(CC)CC)c1C` ?
result: 41.2

query: So what does the record say about inhibition for O=C(c1ccc(F)cc1)N1CCCC(C(=O)N2CCCCC2)C1 (stereo not drawn) ?
result: -2.4

query: So what does the record say about inhibition for `Cc1ccc2oc(=O)c3cnn(CC(=O)N4CCCCCC4)c3c2c1` ?
result: -4.76

query: So what does the record say about inhibition for `CCCC(O)(CCC)C(=O)NN(C(=O)CCl)c1cccc(C)c1` ?
result: 27.6

query: So what does the record say about inhibition for `COc1ccc(Cl)cc1C(=O)NCc1cn(C)nc1C` ?
result: -1.11
